pIC50: −log10 of the molar value.
Compiled record: pIC50 values for human DGAT2 (hDGAT2) (Homo sapiens, UniProt Q96PD7) across several sources.

{"MOLECULE": "CC(C)n1nc(-c2cc(C3CC3)ccc2F)c2ncc(C(=O)NC3(C)CS(=O)(=O)C3)cc21", "pIC50": 8.02}
{"MOLECULE": "CC(C)(C)NC(=O)c1ccc2c(-c3ccccc3Cl)nn(-c3ccc(F)cc3)c2c1", "pIC50": 7.11}
{"MOLECULE": "Cc1cc2nc(C(=O)NC3(C)CCS(=O)(=O)CC3)cn2cc1Oc1ncc(F)cc1OCC(F)(F)F", "pIC50": 7.89}
{"MOLECULE": "Cc1cc2nc(C(=O)NC3(C)CS(=O)(=O)C3)cn2nc1Oc1ncc(Cl)cc1OCC(F)F", "pIC50": 6.92}
{"MOLECULE": "N[C@@H]1CCC[C@H]1NC(=O)c1cnc2c(-c3cccc(OC(F)F)c3)cn(-c3ncc(F)cn3)c2c1", "pIC50": 5.19}
{"MOLECULE": "CCC(C)CNC(=O)N1CCc2c(-c3cccc(OC)c3)ccc(CNC(=O)[C@@H]3C[C@H]3c3ccccc3)c2C1 (relative stereo)", "pIC50": 6.63}
{"MOLECULE": "CC1(NC(=O)c2ccc3c(c2)c(C2(O)CCOCC2)nn3-c2cccc(OC(F)F)c2)CS(=O)(=O)C1", "pIC50": 7.29}
{"MOLECULE": "C[C@]1(NC(=O)c2ccc3c(-c4ccccc4Cl)cn(-c4ccc(F)cc4)c3n2)CCS(=O)(=O)C1", "pIC50": 5.43}
{"MOLECULE": "O=C(N[C@H]1CCCC(F)(F)[C@@H]1O)c1cn2cc(Oc3ncc(F)cc3OCC(F)(F)F)ccc2n1", "pIC50": 8.35}
{"MOLECULE": "Cn1nnc2ccc(-c3nn(-c4ccc(F)cc4)c4cc(C(=O)NC5(C)CCS(=O)(=O)C5)ccc34)cc21 (racemic)", "pIC50": 6.47}
{"MOLECULE": "Cc1c(C(=O)NC2(C)CS(=O)(=O)C2)nc2ccc(Oc3ncc(N(C)C)cc3OCC(F)(F)F)cn12", "pIC50": 7.20}
{"MOLECULE": "CC(C)(C)NC(=O)N1CCc2c(-c3cccc(C#N)c3)ccc(CNC(=O)[C@@H]3C[C@H]3c3ccccc3)c2C1 (relative stereo)", "pIC50": 7.79}
{"MOLECULE": "CC(C)(C)NC(=O)N1CCc2c(-c3cncc(C(C)(C)O)c3)ccc(CNC(=O)[C@@H]3C[C@H]3c3ccccc3)c2C1 (relative stereo)", "pIC50": 6.78}
{"MOLECULE": "CC(C)(C)NC(=O)N1CCc2c(-c3cccc(OC(F)(F)F)c3)ccc(CNC(=O)c3cc(C(F)(F)F)n[nH]3)c2C1", "pIC50": 6.98}

---

pIC50: −log10 of the molar value.
Compiled record: pIC50 values for human DGAT2 (hDGAT2) (Homo sapiens, UniProt Q96PD7) across several sources.
ASSAY_ENDPOINT: pIC50

{"COMPOUND": "CC(C)n1nc(-c2cccc(OC(F)F)c2)c2ncc(C(=O)N[C@]3(C#N)CCOC3)cc21", "EXPERIMENTAL_SYSTEM": "human DGAT2 (hDGAT2) (Homo sapiens, UniProt Q96PD7)", "VAL": 7.96}
{"COMPOUND": "CC(F)(F)COc1cc(Cl)cnc1Oc1ccc2nc(C(=O)NC3(C)CCS(=O)(=O)CC3)cn2n1", "EXPERIMENTAL_SYSTEM": "human DGAT2 (hDGAT2) (Homo sapiens, UniProt Q96PD7)", "VAL": 6.81}
{"COMPOUND": "Cc1ccc(-c2cn(-c3ccc(F)cc3)c3cc(C(=O)NC4CCS(=O)(=O)C4)ccc23)cc1 (racemic)", "EXPERIMENTAL_SYSTEM": "human DGAT2 (hDGAT2) (Homo sapiens, UniProt Q96PD7)", "VAL": 6.16}
{"COMPOUND": "COc1cc(-c2nn(-c3ccc(F)cc3)c3cc(C(=O)NC4(C)CCS(=O)(=O)C4)ccc23)c(Cl)cn1 (single isomer, unassigned)", "EXPERIMENTAL_SYSTEM": "human DGAT2 (hDGAT2) (Homo sapiens, UniProt Q96PD7)", "VAL": 8.32}
